Ref: ChEMBL document CHEMBL1149647

measured.target: Matrix metalloproteinase-14 (Homo sapiens)
measurement.description: Inhibition of human recombinant MMP14
pIC50 overview
Formally, pIC50 is defined as -log10 of the concentration c, with c in mol/L.

Task: Item under review: CC#CCNc1ccc(S(=O)(=O)CC2(C(=O)NO)CCN(Cc3ccncc3)CC2)cc1 . Reported pIC50?
Result: 5.36

Task: Field request: pIC50 | item: CC#CCNc1ccc(S(=O)(=O)CC2(C(=O)NO)CCN(C(=O)c3ccccc3C)CC2)cc1
Result: 6.00

Task: Which value of pIC50 has been reported for CC#CCNc1ccc(S(=O)(=O)CC2(C(=O)NO)CCN(C(=O)N(CC)CC)CC2)cc1 in the records?
Result: 5.44

Task: Query (molecule): CC#CCOc1ccc(S(=O)(=O)CC2(C(=O)NO)CCN(S(=O)(=O)C(C)C)CC2)cc1 ; field requested: pIC50
Result: 5.44

Task: Look at this molecule and give its reported pIC50. CC#CCNc1ccc(S(=O)(=O)CC2(C(=O)NO)CCN(C(=O)C(C)CC)CC2)cc1 (configuration not stated)
Result: 5.15

Task: Fill in: pIC50 of CC#CCNc1ccc(S(=O)(=O)CC2(C(=O)NO)CCN(C(=O)OC(C)(C)C)CC2)cc1 is ___
Result: 5.63

Task: Name the recorded pIC50 for CC#CCNc1ccc(S(=O)(=O)CC2(C(=O)NO)CCN(C(=O)C(C)C)CC2)cc1 .
Result: 5.31

###

measured.target: 72 kDa type IV collagenase (Homo sapiens)
Sequence (P08253 whole entry): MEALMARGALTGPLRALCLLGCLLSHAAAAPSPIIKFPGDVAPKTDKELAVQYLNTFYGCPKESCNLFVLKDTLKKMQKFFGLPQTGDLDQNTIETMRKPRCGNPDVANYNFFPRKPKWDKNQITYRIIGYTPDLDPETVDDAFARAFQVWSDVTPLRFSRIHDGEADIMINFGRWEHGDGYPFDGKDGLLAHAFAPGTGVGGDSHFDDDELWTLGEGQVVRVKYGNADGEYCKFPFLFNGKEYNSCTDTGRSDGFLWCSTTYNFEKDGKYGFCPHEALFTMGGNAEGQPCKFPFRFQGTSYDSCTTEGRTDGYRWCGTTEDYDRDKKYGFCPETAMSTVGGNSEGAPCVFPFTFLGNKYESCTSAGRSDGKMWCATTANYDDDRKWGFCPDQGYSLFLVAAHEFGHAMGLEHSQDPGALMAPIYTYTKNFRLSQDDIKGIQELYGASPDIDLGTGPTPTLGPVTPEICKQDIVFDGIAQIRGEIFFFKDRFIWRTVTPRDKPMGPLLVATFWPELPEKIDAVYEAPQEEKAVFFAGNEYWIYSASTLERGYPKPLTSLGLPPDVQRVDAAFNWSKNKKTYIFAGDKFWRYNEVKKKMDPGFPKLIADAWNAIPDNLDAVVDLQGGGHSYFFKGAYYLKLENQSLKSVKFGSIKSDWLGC
measurement.description: Inhibition of human recombinant MMP2
quantity: IC50 (nM)
Field: numeric (nM). Do not append units.

Before answering, review these 3 worked examples.
molecule	unit.descriptor	experimental.value
CC#CCNc1ccc(S(=O)(=O)N2CCSC(C)(C)[C@@H]2C(=O)NO)cc1	nM	56
CC#CCNc1ccc(S(=O)(=O)CC2(C(=O)NO)CCN(C(=O)C(C)CC)CC2)cc1 (stereo not given)	nM	1310
CC#CCNc1ccc(S(=O)(=O)CC2(C(=O)NO)CCN(C(=O)N(CC)CC)CC2)cc1	nM	216

Now take the following molecule into account.
Task: Provide the documented IC50 with 72 kDa type IV collagenase (Homo sapiens) as the system for CC#CCNc1ccc(S(=O)(=O)CC2(C(=O)NO)CCN(C(=O)OC(C)(C)C)CC2)cc1
Result: 120
